// provenance: patent US20080032921A1

Provide the reported IC50 of each item.
Target: HLA-DR DRB1*0101 (human)
Experiment: competition with 125I-labelled peptide, purified HLA
Your answer is read as nM, so omit the unit and give the number.

Fill in the blank: the reported IC50 of LEGFSAESRKLLLVV (modifications not checked) [Flu.PA.658] is ____.
12

Please look up its IC50: YIQMCTELKLSDYEG (modifications not checked) [Flu.NP.43]
320

// query IC50 value for entry EECLINDPWVLLNAS (modifications not checked) [Flu.PA.694]
34

Any idea what IC50 was measured for TKKMVTQRTIGKKKQ (modifications not checked) [Flu.PB1.199] ?
1150

Quick one: IC50 for SLMLQIGNMISIWVSHS (modifications not checked) [Flu.NA.21] ?
8
